Target: T1, HBsAg AY serotype (Hepatitis B virus)
T1 construct: also called HBsAg serotype AY
Test: SPR epitope binning; competitor (1st, saturating Ab): CR8087
Property name: binding of second antibody

Worked cases, binding of second antibody given:
QUERY: Quick one: binding of second antibody of NOV3832 (antibody, human IgG1, lambda, V domains shown, Full human IgG1 (lambda) expressed in CHO cells) VH: EMQVLESGGGLVQPGGSLRLSCAASGFTFDNYAMSWVRQVPGKGLEWVSSISGSGGSTYYADSVKGQFTISRDNSKNTLYLQMNSLRAEDTAVYYCAKSSILSGGHARVYGIDVWGQGTTVTVSS VL: QSALTQPPSVSVAPGQTARITCGGNNIGSQSVHWYQQKPGQAPILVVYDDTDRPSGIPARFSGSSSGSTATLTIGRVEAGDEADYYCQVWDSSSDHVVFGGGTKLTVLS ?
RESULT: 117 % of its binding as first antibody

QUERY: Quick one: binding of second antibody of NOV3841 (antibody, human IgG1, lambda, V domains shown, Full human IgG1 (lambda) expressed in CHO cells) VH: EVQLLESGGGLVQPGGSRRLSCAASGFTFSYYGMNWVRQAPGKGLEWVSGITQSGSITYYADTVKGRFSISRDNSKNTLFLQMNSLRAEDTAVYYCAKVGVRSSSGMWDLDYWGQGTLVTVSS VL: SYVLTQPPSVSVAPGQTARLSCGGNNIGSKSLQWYQQKPGQAPVLVVNDESDRPSGIPERFSGSNSGNTATLTISRVEAGDEADYYCQVWDTSSDHVVFGGGTKLTVLG ?
RESULT: 129 % of its binding as first antibody

New cases:
QUERY: Quick one: binding of second antibody of NOV3842 (antibody, human IgG1, lambda, V domains shown, Full human IgG1 (lambda) expressed in CHO cells) VH: EVQLLESGGGLVQPGGSRRLSCAASGFTFSYYGMNWVRQAPGKGLEWVSGITNVGSITYYADTVKGRFSISRDNSKNTLFLQMNSLRAEDTAVYYCAKVGVRSSSGMWDLDYWGQGTLVTVSS VL: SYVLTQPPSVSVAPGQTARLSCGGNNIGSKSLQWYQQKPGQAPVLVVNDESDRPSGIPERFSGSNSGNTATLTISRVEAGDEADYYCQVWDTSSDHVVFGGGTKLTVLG ?
RESULT: 118 % of its binding as first antibody

QUERY: Quick one: binding of second antibody of NOV3540 (antibody, human IgG1, kappa, V domains shown, Full human IgG1 (kappa) expressed in CHO cells) VH: EVQLLESGGGLVQPGGSLRLSCAASGFTFSPHAMSWVRQAPGKGLEWVSAISDSGGSTHYADSVKGRFTISRDNSKNTLYLQMNSLRAEDTAVYYCARDDDAWSGYDYWFDYWGQGTLVTVSS VL: DIQMTQSPSSLSASVGDRVTITCRASQSISPYLNWYQQKPGKAPKLLIYAADSLQSGVPSRFSGSGSGTDFTLTISSLQPEDFATYYCQQSYKIPLTFGQGTKVEIKR ?
RESULT: 118 % of its binding as first antibody
